- ASSAY_TARGET: SARS-CoV-2 spike RBD (Wuhan-Hu-1) (Severe acute respiratory syndrome …, UniProt P0DTC2)
- ASSAY_TEXT: SPR
MEASUREMENT_LABEL: log10 of Kd (log10 of the value in nM)
Please be aware that the numbers have been log10-transformed from Kd in nM.

Examples from the recorded data:
COVIC-366 (antibody, V domains shown) VH: EVQLVESGGGLVQPGRSLRLSCAASGFSLDDYGMHWVRQAPGKGLEWVSGISWNSGDRGYADSVKGRFTISRDNAKNSLYLQMNSLRAEDTALYYCAKGSGAHYDIMTGARLDYWGQGTLVTVSS VL: DIQMTQSPSSLSASVGDRVTITCRASQSITNYLNWYQQKPGKVPKLLIYAASILQSGVPSRFSGSGSGTDFTLTISSLQPEDFATYYCQQSYSTPWTFGQGTKVEIKR | -1.15
COVIC-59 (antibody, V domains shown) VH: QVQLQESGGGLVQAGGSLRLSCAASGRTFSEYAMGWFRQAPGKEREFVATISWSGGSTYYTDSVKGRFTISRDNAKNTVYLQMNSLKPDDTAVYYCAAAGLGTVVSEWDYDYDYWGQGTQVTVSS | 2.30

IN: Would you mind telling me what log10 of Kd value was observed for COVIC-157 (antibody, V domains shown) VH: EVQLVESGGGLIQPGGSLRLSCAASGFTVSSNYMNWVRQAPGKGLEWVSVIYSGGSTYYADSVKGRFTISRDNSKNTLYLQMNSLRTEDTAVYYCARDLVAYGMDVWGQGTTVTVSS VL: DIQLTQSPSFLSASVGDRVTITCWASQGISSYLAWYQQKPGKAPKVLIYAASTLQSGVPSRFSGSGSGTEFTLTISSLQPEDFATYYCQLLNSNPLTFGGGTKVEIKR ?
OUT: 0.82

IN: Please do the same for COVIC-95 (antibody, V domains shown) VH: EVQLVESGGGLVQPGGSLRLSCAASGQTFNMGWFRQAPGKEREFVAAIGSGGSTSYADSVKGRFTISADNSKNTAYLQMNSLKPEDTAVYYCWRLGNDYFDYWGQGTLVTVSS as well.
OUT: 1.44

The values you see were collected from paper PMC12014896.
